system: SNB-19 CNS; assay: NCI-60 one-dose screen, 48 h (100 = growth as untreated, 0 = no growth, -100 = all killed); conditions: 10 µM
The panel holds about 83,000 compounds, 20% with a hit somewhere; the sample as a whole holds those more often.
Measure: growth (%)
Could you give me the number in %? Just the number is fine.

{"Molecule": "CC(CN(C)C)Oc1ccc(OC(C)CN(C)C)c2c1C(=O)c1ccccc1C2=O (centres undefined)", "Target under test": "SNB-19 CNS", "Unit info": "%", "growth": 37.2}
{"Molecule": "COc1ccc(/C=C2\\CCCC3=C2NC(N)=NC3c2ccc(OC)cc2)cc1 (centres undefined)", "Target under test": "SNB-19 CNS", "Unit info": "%", "growth": 92.1}
{"Molecule": "O=C(CSc1nnc(-c2cccnc2SCc2ccccc2)o1)Nc1nc(Cl)cc(Cl)n1", "Target under test": "SNB-19 CNS", "Unit info": "%", "growth": 106}
{"Molecule": "Fc1ccc(C(c2ccc(F)cc2)C(Cl)Cl)cc1", "Target under test": "SNB-19 CNS", "Unit info": "%", "growth": 101}
{"Molecule": "COc1cc(C)ccc1Oc1nc(Nc2ccc(N3CCOCC3)cc2)ncc1NC(=O)Nc1cc(C(F)(F)F)cc(C(F)(F)F)c1", "Target under test": "SNB-19 CNS", "Unit info": "%", "growth": 61.4}

Lookup: What value of measured growth is listed for O=S(=O)(NCCCNc1nccc(-c2cn(-c3ccccc3)nc2-c2ccc(Cl)c(O)c2)n1)c1ccccc1 ?
Found: 86.1

Lookup: What value of measured growth is listed for CN(C)CCOc1cccc(NC2=C(Cl)C(=O)C(Nc3cccc(OCCN(C)C)c3)=C(Cl)C2=O)c1 ?
Found: 6.1

Lookup: What value of measured growth is listed for Cc1c(Cl)cccc1NC(=O)CCCl ?
Found: 96.7

Lookup: What value of measured growth is listed for CCN(CC)c1ccc(/C=C2\SC(=O)C(Nc3nnc(-c4cccnc4SCc4ccccc4)o3)C2=O)cc1 (centres undefined) ?
Found: 63.5

====

test system: OVCAR-3 ovarian; assay: NCI-60 one-dose screen, 48 h (100 = growth as untreated, 0 = no growth, -100 = all killed); details: 10 µM
Compounds without any hit were thinned out: in the full panel of roughly 83,000, 20% have a hit. Activity calls are given as the source filed them. Rule for the calls: active = growth percent below 10; inactive = the rest.
Measure: growth

Please review the entries below; each comes with its answer.
{"Molecule": "COc1ccc2c(c1)OC(N)=C(C#N)C2c1cc(OC)c(OC)c(OC)c1 (stereo not given)", "growth": "-39.8% (active)"}
{"Molecule": "Cc1cc(C(C#N)c2ccc(Cl)cc2)c(Cl)cc1NC(=O)c1cc(I)cc(I)c1O (stereo not given)", "growth": "32.6% (inactive)"}
{"Molecule": "CCN1CCN(CCC(=O)Nc2cccc(-n3cc(-c4ccncc4)c(-c4ccc(Cl)c(OC)c4)n3)c2)CC1", "growth": "7.41% (active)"}
{"Molecule": "CC(=O)[C@H]1CC[C@]2(C)[C@@H]1CC[C@@H]1[C@@]3(C)CC(CCC#N)(CCC#N)C(=O)C(C)(C)[C@@H]3CC[C@]12C", "growth": "107% (inactive)"}

Lookup: What value of measured growth is listed for CCN(CC)CCCC(Nc1c2ccc(Cl)cc2nc2ccc(OC)cc12)c1ccc(F)cc1 (stereo not given) ?
Found: 108% (inactive)

Lookup: What value of measured growth is listed for O=C1OC(C(Cl)(Cl)Cl)OC1C(Cl)(Cl)Cl (stereo not given) ?
Found: 109% (inactive)

Lookup: What value of measured growth is listed for COc1ccc(C(=O)N2C=Cc3ccccc3C2C#N)cc1 (stereo not given) ?
Found: 105% (inactive)

Lookup: What value of measured growth is listed for CN(C)c1ncnc2c1nnn2C1OC(CO)C(O)C1O (stereo not given) ?
Found: -18.8% (active)

Lookup: What value of measured growth is listed for Cc1ccc(C)c(COc2cc(NC(=O)c3ccc4c(c3)OCO4)ccc2N(C)S(C)(=O)=O)c1 ?
Found: -20.6% (active)

Lookup: What value of measured growth is listed for C[C@H]1[C@H](OC(=O)CCC(=O)O)O[C@@H]2O[C@]3(C)CC[C@H]4[C@H](C)CC[C@@H]1[C@@]24OO3 ?
Found: 30.8% (inactive)

====

test system: HCC-2998 colon; assay: NCI-60 one-dose screen, 48 h (100 = growth as untreated, 0 = no growth, -100 = all killed); settings: 10 µM
About 83,000 compounds went through this panel and 20% of them were active in at least one assay; those are over-represented in the sample as a whole. Calls of active or inactive are those of the source. How the source made its calls: active means growth percent below 10; inactive means the rest.
Measure: growth

Please review the entries below; each comes with its answer.
{"Smiles notation": "CCOC(=O)N/N=C/c1ccc(OC)c(OC)c1", "Measure": "growth", "Result": "114% (inactive)"}
{"Smiles notation": "CC(C)(C)OC(=O)CC(S(=O)(=O)c1ccccc1)S(=O)(=O)c1ccccc1", "Measure": "growth", "Result": "106% (inactive)"}
{"Smiles notation": "CC(=O)Nc1ccc(CC[C@H]2CCC/C=C/[C@@H]3C[C@H](O)C[C@H]3[C@H](O)/C=C/C(=O)O2)cc1", "Measure": "growth", "Result": "2.85% (active)"}

Lookup: What value of measured growth is listed for c1ccc(/C(=N\Nc2ccc3ccccc3n2)c2ccccn2)cc1 ?
Found: 45.5% (inactive)

Lookup: What value of measured growth is listed for COc1ccc(Cl)cc1Nc1nc(C(F)(F)F)ccc1C(=O)N/N=C/c1cc(OC)c(OC)c(OC)c1 ?
Found: 8.93% (active)

Lookup: What value of measured growth is listed for O=C(N/N=C/c1ccc([N+](=O)[O-])cc1)c1ccccc1Nc1cccc(C(F)(F)F)c1 ?
Found: 99.5% (inactive)

Lookup: What value of measured growth is listed for COc1ccc(-c2nn(-c3cccc(Cl)c3)cc2-c2c(C#N)c(=O)n3[nH]c(-c4ccc(C)cc4)nc3c2C#N)cc1 ?
Found: 52.2% (inactive)

Lookup: What value of measured growth is listed for O=C(Nc1ccc(OCc2nnc(-c3ccc(Cl)cc3)o2)c(F)c1)Nc1ccc(Cl)c(C(F)(F)F)c1 ?
Found: 9.15% (active)

Lookup: What value of measured growth is listed for Cc1c2c[n+](C(C)C)ccc2c(C)c2c1[nH]c1ccccc12 ?
Found: 18.8% (inactive)

====

system: HT29 colon; test: NCI-60 one-dose screen, 48 h (100 = growth as untreated, 0 = no growth, -100 = all killed); details: 10 µM
The panel holds about 83,000 compounds, 20% with a hit somewhere; the sample as a whole holds those more often.
Reported growth by item:
Could you give me the number in %? Just the number is fine.

{"Molecule": "N#Cc1c(-c2ccc(Cl)cc2)cc(-c2cc(O)ccc2O)nc1N", "growth (%)": 87.3}
{"Molecule": "COc1cc(C(=O)N2CCN(c3cc4c(cc3F)c(=O)c(C(=O)NO)cn4C3CC3)CC2)cc(OC)c1OC", "growth (%)": 105}
{"Molecule": "Cc1ccc(C2NC(=S)N3C(c4ccc(C)cc4)NC(=S)N23)cc1 (stereo not given)", "growth (%)": 17.8}
{"Molecule": "CC(C)C1=C(O)C2=C(C(=O)C1=O)[C@@]1(C)CCCC(C)(C)[C@@H]1CC2", "growth (%)": 99}
{"Molecule": "COc1cc2c(cc1NC(=O)C(F)(F)F)-c1ccc(NC(=O)C(F)(F)F)cc1C2", "growth (%)": 106}
{"Molecule": "COc1cc2nc(SCC(=O)Nc3cc(OC)c(OC)c(OC)c3)n(Cc3ccccc3)c(=O)c2cc1OC", "growth (%)": 61.9}
{"Molecule": "CCOC(=O)c1sc2ncnc(Nc3ccc4c(cnn4C(=O)Nc4ccc(C)c(Cl)c4)c3)c2c1C", "growth (%)": 90}
{"Molecule": "Cc1nc2n(c(=O)c1CCN1CCC(c3noc4cc(F)ccc34)CC1)CCC[C@@H]2O", "growth (%)": 95.2}

Lookup: What value of measured growth is listed for Cn1cnc([N+](=O)[O-])c1/C=C1\Oc2ccc(Br)cc2C1=O ?
Found: 83.8

Lookup: What value of measured growth is listed for OC[C@H]1OC([S-])[C@H](O)[C@@H](O)[C@@H]1O.[Au+] (stereo not given in full) ?
Found: 83.8

Lookup: What value of measured growth is listed for COc1cc2c(cc1NC(=O)C(Cl)Cl)-c1ccc(NC(=O)C(Cl)Cl)cc1C2 ?
Found: -35.3

Lookup: What value of measured growth is listed for CSc1ccc(-c2cc(-c3ccc(NC(=O)CCCN4CCCC4)cc3)nc(-c3ccc(NC(=O)CCCN4CCCC4)cc3)c2)cc1 ?
Found: 21.9

Lookup: What value of measured growth is listed for COc1ccc(-c2nn(-c3cccc(Cl)c3)cc2-c2c(C#N)c(N)n(N)c(=O)c2C#N)cc1 ?
Found: 66.3
